Value source: patent US9765018B2

# target: UniProt P14902
# Sequence (P14902 whole entry): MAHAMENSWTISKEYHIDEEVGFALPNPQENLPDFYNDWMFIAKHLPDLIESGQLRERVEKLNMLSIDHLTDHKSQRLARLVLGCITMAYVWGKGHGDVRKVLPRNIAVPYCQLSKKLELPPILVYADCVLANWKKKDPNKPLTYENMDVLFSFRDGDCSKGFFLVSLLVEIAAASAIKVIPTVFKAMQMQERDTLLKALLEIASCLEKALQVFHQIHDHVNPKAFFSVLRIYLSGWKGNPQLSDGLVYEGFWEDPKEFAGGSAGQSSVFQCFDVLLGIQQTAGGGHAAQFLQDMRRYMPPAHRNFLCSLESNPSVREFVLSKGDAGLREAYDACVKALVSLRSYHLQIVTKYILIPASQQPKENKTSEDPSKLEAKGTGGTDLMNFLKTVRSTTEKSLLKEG
# method.notes: Kynurenine assay in IFN-γ-stimulated Hela cells
# Type: cell-based
# protocol.conditions: 20 h, read-out: Hela Kyurenine (IC50)
readout.name: IC50 (nM)

given.smiles	quantitative.readout
COc1ccc(-c2ccc(Oc3ccccc3C(C)(C)C)c(NC(=O)Nc3ccccc3F)c2)cc1C(=O)O	60
COc1ccccc1Oc1ccc(-c2ccc(OC)c(C(=O)O)c2)cc1NC(=O)Nc1ccccc1Cl	490
COc1ccc(NC(=O)Nc2cc(-c3ccc(OC)c(C(=O)O)c3)ccc2Oc2ccccc2C(C)(C)C)c(C)c1	620
CC(C)(C)c1ccccc1Oc1ccc(-c2cccc(C(=O)O)c2)cc1NC(=O)Nc1ccccc1Cl	420
COc1ccc(-c2ccc(Oc3cccc4ccccc34)c(NC(=O)Nc3ccc(C)cc3)c2)cc1C(=O)O	160
COc1ccc(-c2ccc(Oc3cccc4ccccc34)c(NC(=O)Nc3ccccc3C)c2)cc1C(=O)O	70
O=C(Nc1ccccc1Cl)Nc1cc(-c2ccc(C(=O)O)c(Cl)c2)ccc1Oc1ccccc1C(F)(F)F	500
CC(C)(C)c1ccccc1Oc1ccc(-c2ccccc2-c2nnn[nH]2)cc1NC(=O)Nc1ccccc1F	170
Cc1ccc(NC(=O)Nc2cc(-c3ccc(C(=O)O)c(Cl)c3)ccc2Oc2ccccc2C(F)(F)F)cc1	850
COc1ccc(-c2cnc(Oc3ccccc3C(C)(C)C)c(NC(=O)Nc3ccccc3Cl)c2)cc1C(=O)O	760
COc1ccc(-c2ccc(Oc3cccc(C(C)(C)C)c3)c(NC(=O)Nc3ccccc3Cl)c2)cc1C(=O)O	130
O=C(Nc1ccc(C(F)(F)F)cc1)Nc1cc(-c2ccc(C(=O)O)c(Cl)c2)ccc1Oc1ccccc1C(F)(F)F	1230
COc1ccc(-c2ccc(Oc3ccccc3C(C)(C)C)c(NC(=O)NC(C)(C)C)c2)cc1C(=O)O	130
COc1ccc(-c2ccc(Oc3ccccc3Cl)c(NC(=O)Nc3ccccc3Cl)c2)cc1C(=O)O	590
Cc1ccccc1NC(=O)Nc1cc(-c2cccc(Cl)c2C(=O)O)ccc1Oc1ccccc1C(C)(C)C	1630
COc1ccc(-c2ccc(Oc3cccc4c3CCC4)c(NC(=O)Nc3ccccc3Cl)c2)cc1C(=O)O	40
COc1ccc(-c2ccc(Oc3ccccc3C)c(NC(=O)Nc3ccccc3C)c2)cc1C(=O)O	380
Cc1ccc(NC(=O)Nc2cc(-c3cccc(Cl)c3C(=O)O)ccc2Oc2ccccc2C(C)(C)C)cc1	280
COc1ccc(-c2ccc(Oc3ccc4c(c3)CCCC4)c(NC(=O)Nc3cccc(C)c3)c2)cc1C(=O)O	460
COc1ccc(-c2ccc(Oc3cccc4c3CCCC4)c(NC(=O)Nc3ccccc3)c2)cc1C(=O)O	60
Cc1ccc(NC(=O)Nc2cc(-c3cccc(C(=O)O)c3)ccc2Oc2ccccc2C(C)(C)C)cc1	790
Cc1ccc(NC(=O)Nc2cc(-c3cccc(C(=O)O)c3)ccc2Oc2ccc(Cl)cc2)cc1	1490
Cc1ccccc1NC(=O)Nc1cc(-c2ccc(C(=O)O)cc2)ccc1Oc1ccccc1C(C)(C)C	1520
Cc1cccc(NC(=O)Nc2cc(-c3ccc(C(=O)O)c(Cl)c3)ccc2Oc2ccccc2C(F)(F)F)c1	1250
COc1ccc(Cl)cc1NC(=O)Nc1cc(-c2ccc(OC)c(C(=O)O)c2)ccc1Oc1ccccc1C(C)(C)C	600
COc1ccc(-c2ccc(Oc3ccccc3C(C)(C)C)c(NC(=O)Nc3ccccc3Cl)c2)c(C(=O)O)c1	280
COc1cc(-c2ccc(Oc3ccccc3C(C)(C)C)c(NC(=O)Nc3cccc(C)c3)c2)ccc1C(=O)O	1070
Cc1ccc(NC(=O)Nc2cc(-c3cc(Cl)cc(C(=O)O)c3)ccc2Oc2ccccc2C(C)(C)C)cc1	700
COc1ccc(-c2cnc(Oc3ccccc3C(C)(C)C)c(NC(=O)Nc3ccc(C)cc3)c2)cc1C(=O)O	340
Cc1ccc(NC(=O)Nc2cc(-c3ccc(C(=O)O)c(Cl)c3)ccc2Oc2ccccc2C(C)(C)C)cc1	440
